assay: Phase I and Phase I + II metabolic stability; format: in vitro ADME; conditions: Phase I + II; read-out: Phase I + II T1/2
endpoint: half-life (h)
Numeric answer only, unit h assumed.

-- ask Fill blank: measured half-life of the compound COc1ccc(C(=O)C2CC2c2ccc(N3C(=O)[C@@H]4[C@@H]5C=C[C@@H]([C@H]6C[C@@H]56)[C@@H]4C3=O)cc2)cc1 (some centres unmarked) is ____.
-- reply 1.39

----------
test: fraction unbound in culture media; assay type: in vitro ADME; conditions: read-out: fraction unbound (fu) for culture media
endpoint: fraction unbound
Format: numeric value only, no unit, no commentary.

-- ask Fill blank: measured fraction unbound of the compound O=C(COc1ccc(N2C(=O)C3C4C=CC(C5CC45)C3C2=O)cc1)c1cc(Cl)cc(Cl)c1 (stereo not shown) is ____.
-- reply 0.11

----------
assay: Phase I and Phase I + II metabolic stability; assay type: in vitro ADME; conditions: Phase I; read-out: Phase I T1/2
endpoint: half-life (h)
Numeric answer only, unit h assumed.

-- ask Fill blank: measured half-life of the compound COc1ccc(C(=O)C2CC2c2ccc(N3C(=O)[C@@H]4[C@@H]5C=C[C@@H]([C@H]6C[C@@H]56)[C@@H]4C3=O)cc2)cc1 (some centres unmarked) [compound 24] is ____.
-- reply 1.18

----------
Target: p75/LSS (Mus musculus, UniProt Q8BLN5)
Construct: endogenous in cells; host or cells: Mut6 murine GBM stem-like cells
Sequence (Q8BLN5 1-733): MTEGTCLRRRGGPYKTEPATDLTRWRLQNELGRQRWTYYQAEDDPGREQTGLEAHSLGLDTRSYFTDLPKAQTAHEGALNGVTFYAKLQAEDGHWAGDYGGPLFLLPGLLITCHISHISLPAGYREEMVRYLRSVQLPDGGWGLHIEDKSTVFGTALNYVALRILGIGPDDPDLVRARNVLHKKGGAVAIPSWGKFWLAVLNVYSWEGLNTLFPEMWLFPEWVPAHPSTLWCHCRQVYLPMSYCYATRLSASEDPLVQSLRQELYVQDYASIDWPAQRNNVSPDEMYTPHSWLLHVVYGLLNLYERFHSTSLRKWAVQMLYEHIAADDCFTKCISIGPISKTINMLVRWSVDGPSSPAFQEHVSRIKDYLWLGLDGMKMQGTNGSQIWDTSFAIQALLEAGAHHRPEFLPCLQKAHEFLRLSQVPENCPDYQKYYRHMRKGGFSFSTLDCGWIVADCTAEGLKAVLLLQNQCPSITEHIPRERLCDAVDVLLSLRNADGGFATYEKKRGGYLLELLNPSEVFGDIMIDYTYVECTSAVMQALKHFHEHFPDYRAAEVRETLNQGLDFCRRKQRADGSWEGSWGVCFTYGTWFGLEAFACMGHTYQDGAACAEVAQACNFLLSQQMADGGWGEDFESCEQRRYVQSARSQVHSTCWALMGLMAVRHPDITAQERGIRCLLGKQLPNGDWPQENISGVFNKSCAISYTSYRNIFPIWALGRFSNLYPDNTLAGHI
Test: p75 probe-displacement assay with MM0299-probe in Mut6 cells
Format: binding
Conditions: read-out: p75 binding EC50 (concentration of competitor required to displace 50% of probe-bound signal)
endpoint: pEC50
// scale note: pEC50 = -log10(conc_M); give the bare number

-- ask Fill blank: measured pEC50 of the compound C=CCN(C)CCCCCCOc1ccc(C(=O)c2ccc(Br)cc2)c(F)c1 [Ro 48-8071, reference compound] is ____.
-- reply 8.61

----------
experiment: Mouse Pharmacokinetic Profile (IP); assay type: in vivo; conditions: plasma
endpoint: Cmax (ng/mL)
Numeric answer only, unit ng/mL assumed.

-- ask Fill blank: measured Cmax of the compound O=C(COc1ccc(N2C(=O)[C@@H]3[C@@H]4C=C[C@@H]([C@H]5C[C@@H]45)[C@@H]3C2=O)nc1)c1ccc(Cl)c(Cl)c1 [compound 79] is ____.
-- reply 7020

----------
Test system: UTSW63
Assay: proliferation of human GSC line UTSW63
Type: cell-based
Settings: Homo sapiens, UTSW63; read-out: IC50, proliferation of UTSW63
Source text: Given that our studies of MM0299 have primarily utilized Mut6 cells—a GSC line from a single genetically-defined mouse model—we next sought to evaluate the anti-proliferative activity and mechanism of action of MM0299 in human GSC lines with different genetic drivers. We developed two GSC lines from patients at UT Southwestern Medical Center, denoted as UTSW63 and UTSW71. UTSW63 is derived from the resected tumor of a patient with malignant neoplasm of the temporal lobe. […]
A collection of compounds and their measured IC50
Numeric answer only, unit nM assumed.

>>> print(df.to_string())
                                   compound  unit_text  observed_result
0  O=C(COc1ccc(N2C(=O)C3C4C=CC(C5CC45)C3C2=O)cc1)c1cc(Cl)cc(Cl)c1 (centres unmarked) [Analog 13]         nM             29.3

Consider the additional compound presented here.
-- ask Fill blank: measured IC50 of the compound COc1ccc(C(=O)COc2ccc(N3C(=O)[C@@H]4[C@@H]5C=C[C@@H]([C@H]6C[C@@H]56)[C@@H]4C3=O)cc2)cc1 [compound 1] is ____.
-- reply 22.2

----------
test system: UTSW71; experiment: proliferation of human GSC line UTSW71; type: cell-based; conditions: Homo sapiens; read-out: IC50, proliferation of UTSW71
endpoint: pIC50
// scale note: pIC50 = -log10(conc_M); give the bare number

-- ask Fill blank: measured pIC50 of the molecule COc1ccc(C(=O)COc2ccc(N3C(=O)[C@@H]4[C@@H]5C=C[C@@H]([C@H]6C[C@@H]56)[C@@H]4C3=O)cc2)cc1 [compound 1] is ____.
-- reply 7.67

----------
molecular target: recombinant human LSS (Homo sapiens, UniProt P48449); construct: made in house; host or cells: E. coli; assay: cell-free in vitro reaction with recombinant LSS; assay type: biochemical; details: in vitro; read-out: IC50, DOS conversion to EPL by LSS
Sequence (P48449 whole entry): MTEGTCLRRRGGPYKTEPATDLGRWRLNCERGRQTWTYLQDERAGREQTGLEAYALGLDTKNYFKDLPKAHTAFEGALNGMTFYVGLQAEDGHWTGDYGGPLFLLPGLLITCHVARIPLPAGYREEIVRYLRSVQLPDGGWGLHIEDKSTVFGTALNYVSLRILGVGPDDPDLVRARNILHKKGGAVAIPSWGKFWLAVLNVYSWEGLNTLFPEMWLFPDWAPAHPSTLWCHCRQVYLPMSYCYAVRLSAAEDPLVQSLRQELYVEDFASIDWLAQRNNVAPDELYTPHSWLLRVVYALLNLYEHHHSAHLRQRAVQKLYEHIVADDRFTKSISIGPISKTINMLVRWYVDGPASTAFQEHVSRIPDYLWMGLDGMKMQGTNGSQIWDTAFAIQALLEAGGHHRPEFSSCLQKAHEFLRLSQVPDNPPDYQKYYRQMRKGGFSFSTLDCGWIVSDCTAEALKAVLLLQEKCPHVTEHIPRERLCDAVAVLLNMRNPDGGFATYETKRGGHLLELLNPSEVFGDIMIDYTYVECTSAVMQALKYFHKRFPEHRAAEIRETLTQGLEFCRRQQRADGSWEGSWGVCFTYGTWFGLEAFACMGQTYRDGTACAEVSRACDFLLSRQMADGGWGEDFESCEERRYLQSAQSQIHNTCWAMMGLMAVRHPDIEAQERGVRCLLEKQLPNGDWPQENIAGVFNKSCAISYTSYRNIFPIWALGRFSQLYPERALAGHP
endpoint: pIC50
// scale note: pIC50 = -log10(conc_M); give the bare number

-- ask Fill blank: measured pIC50 of the molecule COc1ccc(C(=O)COc2ccc(N3C(=O)[C@@H]4[C@@H]5C=C[C@@H]([C@H]6C[C@@H]56)[C@@H]4C3=O)cc2)cc1 [compound 1] is ____.
-- reply 5.80

----------
experiment: pharmacokinetics of analog 13 in mice, IV 5 mg/kg and PO 20 mg/kg; format: in vivo; conditions: mouse, brain; mice, IV 5 mg/kg, PO 20 mg/kg
endpoint: bioavailability (%)
Numeric answer only, unit % assumed.

-- ask Fill blank: measured bioavailability of the molecule O=C(COc1ccc(N2C(=O)C3C4C=CC(C5CC45)C3C2=O)cc1)c1cc(Cl)cc(Cl)c1 (stereo not shown) [Analog 13] is ____.
-- reply 58

----------
experiment: Mouse Pharmacokinetic Profile (IP); format: in vivo
endpoint: Brain AUC (ng·min/g)

In [3]: df
Out[3]:
                                   compound  observed_result
0  COc1ccc(C(=O)C2CC2c2ccc(N3C(=O)[C@@H]4[C@@H]5C=C[C@@H]([C@H]6C[C@@H]56)[C@@H]4C3=O)cc2)cc1 (stereo partly shown)           294638

I: COc1ccc(C(=O)C2CC2c2ccc(N3C(=O)[C@@H]4[C@@H]5C=C[C@@H]([C@H]6C[C@@H]56)[C@@H]4C3=O)c(F)c2)cc1Cl (stereo partly shown)
II: O=C(COc1ccc(N2C(=O)[C@@H]3[C@@H]4C=C[C@@H]([C@H]5C[C@@H]45)[C@@H]3C2=O)nc1)c1ccc(Cl)c(Cl)c1
III: O=C(COc1cnc(N2C(=O)[C@@H]3[C@@H]4C=C[C@@H]([C@H]5C[C@@H]45)[C@@H]3C2=O)nc1)c1ccc(Cl)c(Cl)c1
-- ask Put the items in order so that reported Brain AUC rises from first to last. Order the labels as requested and give them as your answer.
-- reply III, II, I
(III: 83822.58 ng·min/g, II: 147368.94 ng·min/g, I: 220405 ng·min/g)

----------
assay: pharmacokinetics of analog 13 in mice, IV 5 mg/kg and PO 20 mg/kg; type: in vivo; conditions: mouse, brain/plasma; 20 mg/kg PO; read-out: brain to blood ratio (free AUCbrain/free AUCplasma)
endpoint: Kp
Format: numeric value only, no unit, no commentary.

-- ask Fill blank: measured Kp of the compound O=C(COc1ccc(N2C(=O)C3C4C=CC(C5CC45)C3C2=O)cc1)c1cc(Cl)cc(Cl)c1 (stereo not shown) [Analog 13] is ____.
-- reply 1.8

----------
assay: Mouse Pharmacokinetic Profile (IP); assay type: in vivo; conditions: brain/plasma, read-out: BBB (ratio), AUC brain/AUC plasma
endpoint: Kp

1: O=C(COc1cnc(N2C(=O)[C@@H]3[C@@H]4C=C[C@@H]([C@H]5C[C@@H]45)[C@@H]3C2=O)nc1)c1ccc(Cl)c(Cl)c1 [compound 85]
2: COc1ccc(C(=O)C2CC2c2ccc(N3C(=O)[C@@H]4[C@@H]5C=C[C@@H]([C@H]6C[C@@H]56)[C@@H]4C3=O)c(F)c2)cc1Cl (stereo partly shown) [compound 65]
3: O=C(COc1ccc(N2C(=O)[C@@H]3[C@@H]4C=C[C@@H]([C@H]5C[C@@H]45)[C@@H]3C2=O)nc1)c1ccc(Cl)c(Cl)c1 [compound 79]
4: COc1ccc(C(=O)C2CC2c2ccc(N3C(=O)[C@@H]4[C@@H]5C=C[C@@H]([C@H]6C[C@@H]56)[C@@H]4C3=O)cc2)cc1 (stereo partly shown) [compound 24]
-- ask Falling order of Kp, please. Order the labels as requested and give them as your answer.
-- reply 4, 2, 1, 3
